test system: HT-29 cells (human colorectal adenocarcinoma); assay: In vitro anticancer assay (cytotoxicity), MTT, HT-29; conditions: Homo sapiens, HT-29, read-out: Cytotoxicity ED50, HT-29
Reported EC50 values are given for each entry in this list.

What is its EC50 for HT-29 cells (human colorectal adenocarcinoma)? Entry: `O=C1c2ccccc2C(=O)c2cc(OCCCNC3CCCCC3)ccc21`
3.86 µM

Next:
What is its EC50 for HT-29 cells (human colorectal adenocarcinoma)? Entry: `CCCNCCCOc1ccc2c(c1)C(=O)c1ccccc1C2=O`
6.19 µM

What is its EC50 for HT-29 cells (human colorectal adenocarcinoma)? Entry: `CCCCNCCCOc1ccc2c(c1)C(=O)c1ccccc1C2=O`
14.5 µM

###

system: HT-29 cells (human colorectal adenocarcinoma)
endpoint: EC50 (µM)
The answer is to be given in µM; state only the numeric part.

GET /values?readout=EC50&item= `CC(C)(C)NCCCOc1ccc2c(c1)C(=O)c1ccccc1C2=O`
12.9

###

system: MCF-7 cells (human breast adenocarcinoma); experiment: In vitro anticancer assay (cytotoxicity), MTT, MCF-7; details: Homo sapiens, MCF7, read-out: Cytotoxicity ED50, MCF-7
Threshold-based label: EC50 under 10 µM gives met, EC50 not under 10 µM gives not met.

Worked set:
Does `CN1CCN(CCCOc2ccc3c(c2)C(=O)c2ccccc2C3=O)CC1` have EC50 strictly under 10 µM?
met

Does `CC(C)NCCCOc1ccc2c(c1)C(=O)c1ccccc1C2=O` have EC50 strictly under 10 µM?
not met

Does `CC(C)CNCCCOc1ccc2c(c1)C(=O)c1ccccc1C2=O` have EC50 strictly under 10 µM?
not met

Does `O=C1c2ccccc2C(=O)c2cc(OCCCNC3CCCCC3)ccc21` have EC50 strictly under 10 µM?
met

Does `CCCCNCCCOc1ccc2c(c1)C(=O)c1ccccc1C2=O` have EC50 strictly under 10 µM?
not met

Does `CCN(CC)CCCOc1ccc2c(c1)C(=O)c1ccccc1C2=O` have EC50 strictly under 10 µM?
not met

Does `CCCNCCCOc1ccc2c(c1)C(=O)c1ccccc1C2=O` have EC50 strictly under 10 µM?
met

Next:
Does `CC(C)=CCc1c(O)cc(O)c2c1C(=O)c1ccccc1C2=O` have EC50 strictly under 10 µM?
not met

###

test system: Hep3B cells (human hepatoma)
endpoint: pEC50
Scale note: pEC50 = -log10(concentration in M).

What is its pEC50 for Hep3B cells (human hepatoma)? Entry: CC(C)(C)NCCCOc1ccc2c(c1)C(=O)c1ccccc1C2=O [Compound 14]
4.64

###

test system: MCF-7 cells (human breast adenocarcinoma)
endpoint: EC50 (µM)
The answer is to be given in µM; state only the numeric part.

GET /values?readout=EC50&item= CC(C)(C)NCCCOc1ccc2c(c1)C(=O)c1ccccc1C2=O [Compound 14]
20.8

###

Reported EC50 values are given for each entry in this list.
tested on: HT-29 cells (human colorectal adenocarcinoma); experiment: In vitro anticancer assay (cytotoxicity), MTT, HT-29; conditions: Homo sapiens, HT-29, read-out: Cytotoxicity ED50, HT-29
The answer is to be given in µM; state only the numeric part.

GET /values?readout=EC50&item= `CC(C)NCCCOc1ccc2c(c1)C(=O)c1ccccc1C2=O`
7.12

GET /values?readout=EC50&item= `CC(C)CNCCCOc1ccc2c(c1)C(=O)c1ccccc1C2=O`
7.72

GET /values?readout=EC50&item= `CC(C)=CCc1c(O)cc(O)c2c1C(=O)c1ccccc1C2=O`
56.2

GET /values?readout=EC50&item= `CC(C)(C)NCCCOc1cc(O)c2c(c1)C(=O)c1ccccc1C2=O`
7.93

GET /values?readout=EC50&item= `CCN(CC)CCCOc1ccc2c(c1)C(=O)c1ccccc1C2=O`
11.9

Next:
GET /values?readout=EC50&item= `CN1CCN(CCCOc2ccc3c(c2)C(=O)c2ccccc2C3=O)CC1`
4.67

GET /values?readout=EC50&item= `CCCCNCCCOc1cc(O)c2c(c1)C(=O)c1ccccc1C2=O`
6.52

GET /values?readout=EC50&item= `CC(C)NCCCOc1cc(O)c2c(c1)C(=O)c1ccccc1C2=O`
4.72

GET /values?readout=EC50&item= O=c1[nH]cc(F)c(=O)[nH]1 [Compound 5-FU, 5-fluorouracil, reference compound]
0.57

meta.source: patent US20080027141A1
